species: Homo sapiens; test: Selectivity ratio of IC50 for JNK3 (unknown origin) to IC50 for p38alpha (unknown origin)
ENDPOINT: Ratio IC50
Give bare numbers.

Here are 5 molecules together with their reported answers.
MOLECULE	Ratio IC50
COC(Cn1c(SC2CCC(C(=O)O)CC2O)nc(-c2ccc(F)cc2)c1-c1ccnc(NC(C)=O)c1)OC (stereo not drawn)	14.9
CC(=O)Nc1cc(-c2c(-c3ccc(F)cc3)nc(S/C=C\C(=O)O)n2CC2CC2)ccn1	0.6
CCOC(=O)/C=C/Sc1nc(-c2ccc(F)cc2)c(-c2ccnc(NC(C)=O)c2)n1CC1CC1	1.8
CC(=O)Nc1cc(-c2c(-c3ccc(F)cc3)nc(SC3CCC(C(=O)O)CC3O)n2C2CCCCC2)ccn1 (stereo not drawn)	0.2
CC(=O)Nc1cc(-c2c(-c3ccc(F)cc3)nc(S/C=C\C(=O)O)n2C)ccn1	0.3

Please state, for each entry, its recorded Ratio IC50.
1. CC(=O)CSc1nc(-c2ccc(F)cc2)c(-c2ccnc(NC(C)=O)c2)n1C
2. CC(=O)Nc1cc(-c2c(-c3ccc(F)cc3)nc(Sc3cccc(I)n3)n2C2CCCCC2)ccn1
3. CCNC(=O)N1CCC(Nc2cc(-c3c(-c4ccc(F)cc4)nc(S/C=C\C(=O)O)n3C)ccn2)CC1
4. CC(=O)Nc1cc(-c2c(-c3ccc(F)cc3)nc(SCCC(=O)O)n2C)ccn1
5. CC(=O)Nc1cc(-c2c(-c3ccc(F)cc3)nc(SC3CCC(C(=O)O)CC3O)n2C)ccn1 (stereo not drawn)

Response line:
7.1
4.3
0.4
0.4
0.2

---

species on record: Homo sapiens; experiment: Selectivity ratio of IC50 for JNK3 (unknown origin) to IC50 for p38alpha (unknown origin)
# strict inequality: Ratio IC50 < 0.7 yields 1.0, everything else yields 0.0

A selection of reference data follows.
COMPOUND	ANSWER LABEL
O=C(O)/C=C\Sc1nc(-c2ccc(F)cc2)c(-c2ccnc(Nc3ccccc3)c2)n1CC1CC1	1.0
COC(Cn1c(S/C=C\C(=O)O)nc(-c2ccc(F)cc2)c1-c1ccnc(NC(C)=O)c1)OC	1.0
CC(=O)Nc1cc(-c2c(-c3ccc(F)cc3)nc(S/C=C\C(=O)O)n2CC2CCCO2)ccn1 (racemic)	1.0
COC(Cn1c(SCC#N)nc(-c2ccc(F)cc2)c1-c1ccnc(NC2CC2)c1)OC	1.0
CC(=O)Nc1cc(-c2c(-c3ccc(F)cc3)nc(S/C=C\C(=O)O)n2C2CCCCC2)ccn1	0.0

Prompt line: Hello, is Ratio IC50 of the following compound strictly smaller than 0.7? `CC(=O)Nc1cc(-c2c(-c3ccc(F)cc3)nc(S/C=C/C(=O)O)n2CC2CC2)ccn1`
Response line: 0.0

Prompt line: Take the compound `CC(=O)Nc1cc(-c2c(-c3ccc(F)cc3)nc(SCC(=O)O)n2C)ccn1` and say whether its Ratio IC50 is less than 0.7.
Response line: 1.0

Prompt line: Take the compound `CC(=O)Nc1cc(-c2c(-c3ccc(F)cc3)nc(S/C=C\C(=O)O)n2C2CCCC2)ccn1` and say whether its Ratio IC50 is less than 0.7.
Response line: 1.0

Prompt line: For this compound, is Ratio IC50 lower than 0.7? CC(=O)Nc1cc(-c2c(-c3ccc(F)cc3)nc(S/C=C\C(=O)O)n2CC(O)CO)ccn1 (stereo not drawn)
Response line: 1.0

Prompt line: Is Ratio IC50 strictly under 0.7 for the entry CCC(C)Nc1cc(-c2c(-c3ccc(F)cc3)nc(S/C=C\C(=O)O)n2CC(OC)OC)ccn1 (stereo not drawn) ?
Response line: 0.0

Prompt line: Bench note: check whether `O=C(O)/C=C/Sc1nc(-c2ccc(F)cc2)c(-c2ccnc(Nc3ccccc3)c2)n1CC1CC1` shows Ratio IC50 below 0.7
Response line: 0.0

From: ChEMBL document CHEMBL3393036
